- assaySystem: T1, apical domain of cynomolgus CD71 (cynomolgus, UniProt A0A2K5X958 189-383)
- T1 construct: domain: apical domain; also called Cyno apical domain
- T1 sequence (A0A2K5X958 entry or part of it): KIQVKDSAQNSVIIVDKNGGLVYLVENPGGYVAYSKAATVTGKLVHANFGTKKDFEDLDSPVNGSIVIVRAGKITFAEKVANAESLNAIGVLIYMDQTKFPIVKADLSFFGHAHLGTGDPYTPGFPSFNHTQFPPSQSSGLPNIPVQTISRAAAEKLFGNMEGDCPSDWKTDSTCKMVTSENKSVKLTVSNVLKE
- protocolDescription: primary ELISA; also: test concentration or dose not given here
assayEndpoint: RLU (RLU)

Before answering, review these 2 worked examples.
binder	unitInfo	numericReadout
CD71-binding FN3 domain of SEQ ID NO: 191 (designed binder) MSLPAPKNLVVSRVTEDSARLSWTAPDAAFDSFEIGYFENLYLGEAIVLTVPGSERSYDLAGLKPGTEYWVQIGGVKGGNWSAPLSAIFTT	RLU	4.99e+06
CD71-binding FN3 domain of SEQ ID NO: 177 (designed binder) MSLPAPKNLVVSRVTEDSARLSWTAPDAAFDSFEIGYFENLYLGEAIVLTVPGSERSYDLTSLKPGTEYWVQIGGVKGGNWSAPLSAIFTT	RLU	4.54e+06

I: CD71-binding FN3 domain of SEQ ID NO: 127 (designed binder) MSLPAPKNLVVSRVTEDSARLSWTAPDAAFDSFFIGYLEPQPPGEAITLLVPGSERSYDLTGLKPGTEYNVTIQGVKGGFPSGPLQASFTT
II: CD71-binding FN3 domain of SEQ ID NO: 202 (designed binder) MSLPAPKNLVVSRVTEDSARLSWTAPDAAFDSFEIGYFENLYLGEAIVLTVPGSERSYDLTGLKPGTEYYVHIGGVKGGIWSSPLSAIFTT
Prompt: Of I versus II , which is the one with smaller reported RLU? Write the label of whichever entry you select.
Completion: II
